Origin of values: patent US10399940B2

target: F508delCFTR (Homo sapiens, UniProt P13569, DEL508-508); construct: expressed in transfected cells; host or cells: CFBE41o- (human lung derived epithelial cell line), doxycycline-inducible expression; test: Cell Surface Expression-Horse Radish Peroxidase (CSE-HRP) assay; format: cell-based; conditions: CFBE41o-F508delCFTR-HRP cells; without co-corrector; normalized to on-plate positive control; highest concentration 20 μM;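 also: % of on-plate positive control (2 µM of the co-corrector compound) after DMSO subtraction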
Sequence (P13569 with tags, fused parts or gaps DEL508-508): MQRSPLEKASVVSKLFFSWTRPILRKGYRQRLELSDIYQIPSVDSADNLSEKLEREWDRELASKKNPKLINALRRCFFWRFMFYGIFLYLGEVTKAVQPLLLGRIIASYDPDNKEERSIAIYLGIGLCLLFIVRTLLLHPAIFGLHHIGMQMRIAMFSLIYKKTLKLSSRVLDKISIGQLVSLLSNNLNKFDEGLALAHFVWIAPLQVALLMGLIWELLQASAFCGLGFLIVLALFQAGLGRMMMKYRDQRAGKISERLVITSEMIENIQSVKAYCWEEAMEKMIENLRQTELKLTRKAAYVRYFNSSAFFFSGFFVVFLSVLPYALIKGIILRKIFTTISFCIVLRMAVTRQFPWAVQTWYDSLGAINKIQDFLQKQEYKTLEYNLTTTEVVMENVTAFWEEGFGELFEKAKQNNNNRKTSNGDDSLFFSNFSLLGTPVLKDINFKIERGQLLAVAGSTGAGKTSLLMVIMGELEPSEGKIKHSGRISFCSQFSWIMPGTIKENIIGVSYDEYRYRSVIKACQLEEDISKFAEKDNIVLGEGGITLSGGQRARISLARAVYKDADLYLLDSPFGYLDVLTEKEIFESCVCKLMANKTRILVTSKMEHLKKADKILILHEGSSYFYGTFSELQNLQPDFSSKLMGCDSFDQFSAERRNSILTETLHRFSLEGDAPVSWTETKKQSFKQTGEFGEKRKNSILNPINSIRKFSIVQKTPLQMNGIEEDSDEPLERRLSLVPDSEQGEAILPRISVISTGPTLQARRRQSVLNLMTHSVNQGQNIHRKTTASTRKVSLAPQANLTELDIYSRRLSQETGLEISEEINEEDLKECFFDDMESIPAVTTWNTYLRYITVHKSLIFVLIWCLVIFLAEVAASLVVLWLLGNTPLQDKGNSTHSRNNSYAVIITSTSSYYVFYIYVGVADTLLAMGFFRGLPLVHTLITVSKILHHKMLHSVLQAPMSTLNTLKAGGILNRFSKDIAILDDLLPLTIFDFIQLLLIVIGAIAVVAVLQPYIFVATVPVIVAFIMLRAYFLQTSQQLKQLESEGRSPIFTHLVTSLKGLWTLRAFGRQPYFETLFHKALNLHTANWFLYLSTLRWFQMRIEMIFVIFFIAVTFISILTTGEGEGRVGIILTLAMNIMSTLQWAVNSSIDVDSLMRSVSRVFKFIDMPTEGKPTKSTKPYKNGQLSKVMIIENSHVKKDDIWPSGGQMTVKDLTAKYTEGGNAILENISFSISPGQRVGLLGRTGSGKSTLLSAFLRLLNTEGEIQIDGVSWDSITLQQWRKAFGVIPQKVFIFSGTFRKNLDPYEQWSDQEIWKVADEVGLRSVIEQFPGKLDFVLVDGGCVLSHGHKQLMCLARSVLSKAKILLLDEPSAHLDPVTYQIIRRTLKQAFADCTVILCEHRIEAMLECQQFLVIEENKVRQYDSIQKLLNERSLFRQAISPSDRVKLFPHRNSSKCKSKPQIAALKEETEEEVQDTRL
measurement-name: Maximum % activity (without co-corrector)

Known results for compounds:
compound=COc1ncc(C(F)(F)F)cc1CO[C@H]1[C@H](C(C)(C)C)[C@@H](C(=O)O)N(C(=O)[C@@H]2CCCO2)[C@H]1c1cccc(C(C)C)c1 assayed_target="F508delCFTR (Homo sapiens, UniProt P13569, DEL508-508)" reading="+ (<100)"
compound=CC(C)Oc1ncccc1[C@H]1[C@@H](OCc2cc3cc(Br)ccc3o2)[C@H](C(C)(C)C)[C@@H](C(=O)O)N1C(=O)[C@@H]1CCCCO1 assayed_target="F508delCFTR (Homo sapiens, UniProt P13569, DEL508-508)" reading="+ (<100)"
compound=COc1ccc(C(C)(C)C)cc1CO[C@H]1[C@H](C(C)(C)C)[C@@H](C(=O)O)N(C(=O)C2CCCCC2)[C@H]1c1cccnc1OC(C)C assayed_target="F508delCFTR (Homo sapiens, UniProt P13569, DEL508-508)" reading="+++ (≥200)"
compound=COc1ccc(C(F)(F)F)cc1[C@@](O)(CO)CO[C@H]1[C@H](C(C)(C)C)[C@@H](C(=O)O)N(C(=O)[C@@H]2CCCCO2)[C@H]1c1ccccc1C assayed_target="F508delCFTR (Homo sapiens, UniProt P13569, DEL508-508)" reading="+ (<100)"
compound=COc1nc2ccccc2cc1CO[C@H]1[C@H](C(C)(C)C)[C@@H](C(=O)O)N(C(=O)OC(C)C)[C@H]1c1ccccc1Br assayed_target="F508delCFTR (Homo sapiens, UniProt P13569, DEL508-508)" reading="++ (≥100 and <200)"
compound="COc1ncnc(OC)c1CO[C@@H]1[C@@H](C(C)(C)C)[C@H](C(=O)O)N(C(=O)C2CCCCC2)[C@@H]1c1ccccc1 (racemic)" assayed_target="F508delCFTR (Homo sapiens, UniProt P13569, DEL508-508)" reading="+++ (≥200)"

Reported Maximum % activity (without co-corrector) ( COc1ncc(C(F)(F)F)cc1CO[C@H]1[C@H](C(C)(C)C)[C@@H](C(=O)O)N(C(=O)[C@@H]2CCCCO2)[C@H]1c1ccccc1C(C)C ) = +++ (≥200)

* * *

biological target: F508delCFTR (Homo sapiens, UniProt P13569, DEL508-508); construct: expressed in transfected cells; host or cells: CFBE41o- (human lung derived epithelial cell line), doxycycline-inducible expression; assay: Cell Surface Expression-Horse Radish Peroxidase (CSE-HRP) assay; type: cell-based; settings: CFBE41o-F508delCFTR-HRP cells; with co-corrector (2 μM); normalized to on-plate positive control; highest concentration 20 μM;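 also: % of on-plate positive control (2 µM of the co-corrector compound) after DMSO subtraction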
measurement-name: Maximum % activity (with co-corrector)

compound="COc1ncc(C(F)(F)F)cc1CO[C@H]1[C@H](C(C)(C)C)[C@@H](C(=O)O)N(C(=O)[C@@H]2CCCO2)[C@H]1c1ccccc1C(F)(F)F [Example 156]" measurement_name="Maximum % activity (with co-corrector)" reading="+++ (≥350)"
compound="CCc1ccccc1[C@H]1[C@@H](OCc2ccc(C(F)(F)F)cc2OC)[C@H](C(C)(C)C)[C@@H](C(=O)O)N1C(=O)[C@@H]1CCCCO1 [Example 184]" measurement_name="Maximum % activity (with co-corrector)" reading="+++ (≥350)"
